Test system: NCI-H460 lung
Assay: NCI tumour cell line growth inhibition, 48 h
Readout Kind: TGI

Molecule	Result
c1ccc([P+](CCNCCNCC[P+](c2ccccc2)(c2ccccc2)c2ccccc2)(c2ccccc2)c2ccccc2)cc1	> 100 µM
COc1cc(/C=C\[N+](=O)[O-])ccc1O	13.7 µM
Cc1ccc2c(c1)nc(N)n[n+]2[O-]	> 100 µM
c1cc2nnc1SCCSCCSc1ccc(nn1)SCCSCCS2	> 100 µM
Cc1cc([C@@H](C)Nc2ccccc2C(=O)O)c2nc(N3CCOCC3)cc(=O)n2c1	> 10 µM
O=c1[nH]cnc2c(C3OC(CO)C(O)C3O)c[nH]c12 (configuration not stated)	> 100 µM
COc1cc2c3c(cccc3c1)C(=O)N(CCN1CCCC1)C2=O	11.3 µM
CCN1CCN(c2nc(NCCCNc3ccnc4cc(Cl)ccc34)c3ccccc3n2)CC1	5.1 µM
CCOP(=O)(OCC)[C@H](O)c1ccsc1	> 100 µM
CCCCCCCCCCCCCC(=S)NCCCC[C@H](NC(=O)OCc1ccccc1)C(=O)Nc1ccccc1	> 100 µM
C#Cc1cnc(=O)n(C2CC(O)C(CO)O2)c1 (configuration not stated)	> 100 µM
CCOc1ccc(S(=O)(=O)/N=C2\C=C(SCC(=O)O)C(=O)c3ccccc32)cc1	28.2 µM
Oc1ccccc1/C=N/Nc1ccc2ccccc2n1	20.3 µM
CCCCCCCCCCCCC(=O)OC(c1cnco1)c1nc(C(O)CC(O)C(O)C(C)O)co1 (configuration not stated)	> 37 µM
C=CCN(CC=C)Cn1c(=S)sc2ccccc21	> 100 µM
N#C/C(=C\NC(=S)Nc1ccc(S(=O)(=O)Nc2ccccn2)cc1)C(N)=O	> 100 µM
CC1(C)N=C(N)N=C(N)N1c1ccc(CCCCc2ccc(S(=O)(=O)F)cc2)cc1	13.3 µM
O=C1/C(=C/c2ccc(F)cc2)CCOc2ccc([N+](=O)[O-])cc21	34.9 µM
C[N+](C)(C)CC(=O)N/N=c1\cc(C(=O)Nc2ccc(N=O)cc2C#N)oc2cc(O)ccc12	> 100 µM
O=C1CC(c2ccco2)C2(C(=O)NC(=O)NC2=O)C(c2ccco2)C1 (configuration not stated)	> 75 µM
Cc1cn(C2CC(N)C(CN)O2)c(=O)[nH]c1=O (configuration not stated)	> 100 µM
N#CC1=C(N)OC2=C(CSc3ccccc32)C1c1ccc(Br)cc1 (configuration not stated)	26.8 µM

###

Tested on: SNB-75 CNS
Assay: NCI tumour cell line growth inhibition, 48 h
Readout Kind: log10(TGI) (log10 of the value in µM)

Molecule	Measurement Target	log10(TGI)
CN1CCN(Cc2ccc(C(=O)Nc3cncc(C#Cc4cnc(N)c5ccccc45)c3)cc2C(F)(F)F)CC1	SNB-75 CNS	1.09
CC(C)(C)c1cc(O)c(O)c(C(C)(C)C)c1	SNB-75 CNS	1.28
N#CC1=C(N)OC2=C(CSc3ccccc32)C1c1ccc(Br)cc1 (centres undefined)	SNB-75 CNS	1.34
CCCCCCCCCCCCCCCC(=O)NCC(COP(=O)([O-])OCC[N+](C)(C)C)OCC (centres undefined)	SNB-75 CNS	1.36
Cc1ccc2c(C(C[N+](=O)[O-])c3cccs3)c(-c3ccccc3)[nH]c2c1 (centres undefined)	SNB-75 CNS	0.40
CC(C)(C)OC(=O)NC(Cc1ccccc1)C(=O)OCN1C(=O)C2C3C=CC(C2C1=O)C1C2C(=O)N(COC(=O)C(Cc4ccccc4)NC(=O)OC(C)(C)C)C(=O)C2C31 (centres undefined)	SNB-75 CNS	1.77
